Hey, just so you know, these numbers are from ChEMBL document CHEMBL6074669.

Assay: Prodrug conversion in rat assessed as AUC of (2R,4R)-4-amino-2-(4-boronobutyl)pyrrolidine-2-carboxylic acid at 2 mg/kg, iv by LC-MS-MS analysis
Format: ADME, organism-based
Settings: in vivo
measurement-name: log10(AUC) (log10 of the value in µM·h)
Give log10 of AUC, with AUC taken in µM·h.

The following compounds have reported results that may help.
# compound, measurement-name, experimental-result
rows = [
    ("CCC(C)[C@H](N)C(=O)N[C@H]1CN[C@@](CCCCB(O)O)(C(=O)O)C1 (single isomer, unassigned)", "log10(AUC)", 0.81),
    ("CC[C@H](N)C(=O)N[C@H]1CN[C@@](CCCCB(O)O)(C(=O)O)C1", "log10(AUC)", 0.78),
    ("O=C(N[C@H]1CN[C@@](CCCCB(O)O)(C(=O)O)C1)[C@@H]1CCCN1", "log10(AUC)", -0.39),
    ("NCC(=O)N[C@H]1CN[C@@](CCCCB(O)O)(C(=O)O)C1", "log10(AUC)", 0.69),
    ("CC(C)[C@H](N)C(=O)N1C[C@H](N)C[C@]1(CCCCB(O)O)C(=O)O", "log10(AUC)", -1.85),
    ("CC(C)[C@H](N)C(=O)N[C@H]1CN[C@@](CCCCB(O)O)(C(=O)O)C1", "log10(AUC)", 0.78),
]

Requested read-out: log10(AUC). Entry: CC(C)(C)[C@H](N)C(=O)N[C@H]1CN[C@@](CCCCB(O)O)(C(=O)O)C1
-0.85

Then this compound: C[C@H](N)C(=O)N[C@H]1CN[C@@](CCCCB(O)O)(C(=O)O)C1
0.91

----------
Test: Volume of distribution at steady state in rat at 2 mg/kg, iv by LC-MS-MS analysis
Format: ADME, organism-based
Settings: in vivo, read-out: Vdss
Below, each of the compounds is paired with its reported Vd value.
Provide the reading as a plain figure in L/kg.

The following compounds have reported results that may help.
# mol, display-unit, Vd
measured = [
    ("O=C(O)[C@H]1NCC[C@H]1CCCB(O)O", "L/kg", 0.32),
    ("N[C@H]1CN[C@@](CCCCB(O)O)(C(=O)O)C1", "L/kg", 0.26),
    ("NC[C@@H](CCCB(O)O)[C@H](N)C(=O)O", "L/kg", 0.46),
]

Requested read-out: Vd. Entry: N[C@@H](CCCCB(O)O)C(=O)O
1.01

Then this compound: CC(C)[C@H](N)C(=O)N(C)[C@H]1CN[C@@](CCCCB(O)O)(C(=O)O)C1
1.53

----------
Assay: AUC in rat at 2 mg/kg, iv by LC-MS-MS analysis
Assay type: ADME, organism-based
Settings: in vivo, read-out: AUC
measurement-name: AUC (µM·h)
Provide the reading as a plain figure in µM·h.

The following compounds have reported results that may help.
# compound, AUC, µM·h
measured = [
    ("CC(C)[C@H](N)C(=O)N[C@H]1CN[C@@](CCCCB(O)O)(C(=O)O)C1", 3.1),
    ("CC(C)[C@H](N)C(=O)N1C[C@H](N)C[C@]1(CCCCB(O)O)C(=O)O", 13.2),
    ("CC(C)[C@H](N)C(=O)N[C@@H](CCCCB(O)O)C(=O)O", 0.009),
]

Requested read-out: AUC. Entry: CCC(C)[C@H](N)C(=O)N[C@H]1CN[C@@](CCCCB(O)O)(C(=O)O)C1 (single isomer, unassigned)
0.94

Then this compound: CC(C)(C)[C@H](N)C(=O)N[C@H]1CN[C@@](CCCCB(O)O)(C(=O)O)C1
6.6

Then this compound: NCC(=O)N[C@H]1CN[C@@](CCCCB(O)O)(C(=O)O)C1
6.5

Then this compound: CC(C)[C@H](N)C(=O)N1CC[C@@H](CCCB(O)O)[C@H]1C(=O)O
8.58

Then this compound: CC(C)[C@H](N)C(=O)N(C)[C@H]1CN[C@@](CCCCB(O)O)(C(=O)O)C1
6.6

Then this compound: O=C(N[C@H]1CN[C@@](CCCCB(O)O)(C(=O)O)C1)[C@@H]1CCCN1
8
